Biological target: Excitatory amino acid transporter 1 (Homo sapiens)
Sequence (P43003 whole entry): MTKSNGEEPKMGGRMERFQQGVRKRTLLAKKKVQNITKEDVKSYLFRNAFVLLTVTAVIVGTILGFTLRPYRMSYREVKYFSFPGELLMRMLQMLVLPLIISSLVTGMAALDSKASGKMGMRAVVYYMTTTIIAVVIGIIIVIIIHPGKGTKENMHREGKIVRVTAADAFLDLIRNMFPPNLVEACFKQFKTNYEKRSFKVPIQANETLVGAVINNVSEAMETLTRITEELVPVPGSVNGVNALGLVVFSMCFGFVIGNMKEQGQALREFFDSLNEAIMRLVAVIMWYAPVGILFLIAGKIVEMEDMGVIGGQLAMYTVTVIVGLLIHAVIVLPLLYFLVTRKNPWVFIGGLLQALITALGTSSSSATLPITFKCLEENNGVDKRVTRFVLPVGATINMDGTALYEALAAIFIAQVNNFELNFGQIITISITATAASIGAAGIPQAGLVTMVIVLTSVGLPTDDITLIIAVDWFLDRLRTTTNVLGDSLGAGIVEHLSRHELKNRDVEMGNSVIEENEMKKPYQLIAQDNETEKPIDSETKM
Experiment: Inhibition of human EAAT1 transfected in HEK293 cells assessed as inhibition of [3H]-D-aspartate uptake incubated for 5 mins by liquid scintillation counting analysis
Observed property: IC50 (µM)
Report the figure in µM without appending any unit label.

According to the records, this molecule `N[C@H](C(=O)O)[C@H](Cc1ccccc1)C(=O)O` displays IC50 of 8.7
